- assayed.system: Quadruplex DNA
- experiment.notes: Binding affinity to human G4-quadruplex KRAS DNA 5'- AGGGCGGTGTGGGAAGAGGGAAGAGGGGGAGG-3' assessed as change in fluorescence intensity at 1 uM incubated for 0.5 hrs in presence of different concentrations of DNA by fluorescence spectra analysis
- Type: nucleic-acid assay
pKd: −log10 of the molar value.
Overview of recorded pKd for various compounds

{"compound": "c1c2c(cc3c1OCO3)-c1cc3ccc4c(c3c[n+]1CC2)OCO4 [COPTISINE]", "assayed.system": "Quadruplex DNA", "pKd": 5.95}
{"compound": "C[n+]1cc2c3c(ccc2c2ccc4cc5c(cc4c21)OCO5)OCO3 [SANGUINARIUM]", "assayed.system": "Quadruplex DNA", "pKd": 5.55}
{"compound": "COc1ccc2cc3[n+](cc2c1OC)CCc1cc2c(cc1-3)OCO2 [BERBERINE]", "assayed.system": "Quadruplex DNA", "pKd": 5.72}
{"compound": "COc1ccc2c(c[n+](C)c3c4cc5c(cc4ccc23)OCO5)c1OC [CHELERYTHRINE]", "assayed.system": "Quadruplex DNA", "pKd": 5.97}

====

- assayed.system: Quadruplex DNA
- experiment.notes: Displacement of ThT from human G4-quadruplex KRAS DNA 5'- AGGGCGGTGTGGGAAGAGGGAAGAGGGGGAGG-3' incubated for 0.5 hrs by SpectraMax M2 microplate reader analysis
- Assay type: nucleic-acid assay
Overview of recorded log10 DC50 for various compounds
quantity: log10 DC50 (log10 of the value in µM)

{"compound": "COc1ccc2cc3[n+](cc2c1OC)CCc1cc2c(cc1-3)OCO2 [BERBERINE]", "log10 DC50": 0.42}
{"compound": "C[n+]1cc2c3c(ccc2c2ccc4cc5c(cc4c21)OCO5)OCO3 [SANGUINARIUM]", "log10 DC50": -0.24}
{"compound": "COc1cc2c[n+](C)c3c4cc5c(cc4ccc3c2cc1OC)OCO5 [NITIDINE]", "log10 DC50": 0.96}
{"compound": "COc1ccc2c(c[n+](C)c3c4cc5c(cc4ccc23)OCO5)c1OC [CHELERYTHRINE]", "log10 DC50": -0.07}
{"compound": "c1c2c(cc3c1OCO3)-c1cc3ccc4c(c3c[n+]1CC2)OCO4 [COPTISINE]", "log10 DC50": -0.42}

====

- assayed.system: dsDNA
- experiment.notes: Displacement of Hoechst 33342 from double stranded DNA ssab (unknown origin) incubated for 0.5 hrs by SpectraMax M2 microplate reader analysis
- Format: nucleic-acid assay

{"compound.structure.string": "c1c2c(cc3c1OCO3)-c1cc3ccc4c(c3c[n+]1CC2)OCO4", "DC50 / µM": 23.1}
{"compound.structure.string": "COc1ccc2c(c[n+](C)c3c4cc5c(cc4ccc23)OCO5)c1OC", "DC50 / µM": 3.49}
{"compound.structure.string": "COc1ccc2cc3[n+](cc2c1OC)CCc1cc2c(cc1-3)OCO2", "DC50 / µM": 22.1}
{"compound.structure.string": "COc1cc2c[n+](C)c3c4cc5c(cc4ccc3c2cc1OC)OCO5", "DC50 / µM": 2.97}
{"compound.structure.string": "C[n+]1cc2c3c(ccc2c2ccc4cc5c(cc4c21)OCO5)OCO3", "DC50 / µM": 3.21}

Values were extracted from ChEMBL document CHEMBL5579888.
